Values from patent US20140134183A1

Subject Of Test: T1, recombinant human IL-1 beta (human, UniProt P01584 117-269)
T1 construct: Bought protein; also called rhIL-1 beta; rhIL1-beta
Method Notes: ELISA, cleared E. coli lysate on coated rhIL-1 beta
Parameter Measured: binding result

• DLX2695 (scFv, tested as cleared E. coli lysate; also called DLX2547_2585) scFv: ADIVMTQSPSTLSASVGDRVTITCQASQSISSYLSWYQQKPGKAPKLLIYRASTLASGVPSRFSGSGSGAEFTLTISSLQPDDFATYYCQNTGGGINIAFGQGTKLEIKRGGGGSGGGGSGGGGSGGGGSEVQLVESGGGLVQPGGSLRLSCTVSGFSLSSYAMSWVRQAPGKGLEWVGIIYDSASTYYASWAKGRFTISKDTSKNTVYLQMNSLRAEDTAVYYCARERAIFSGDFDYWGQGTLVTVSS = binds
• DLX2678 (scFv, tested as cleared E. coli lysate; also called DLX2528_2548) scFv: EIVMTQSPSTLSASVGDRVTITCQASQSIGNWLAWYQQKPGKAPKLLIYQASNLASGVPSRFSGSGSGTDFTLTISSLQPDDFATYYCQNAGGATTIAFGQGTKLTVLGGGGGSGGGGSGGGGSGGGGSEVQLVESGGGLVQPGGSLRLSCTVSGFSLSSYAMSWVRQAPGKGLEWIGIIYDSASTYYASWAKGRFTISKDTSKNTLYLQMNSLRAEDTAVYFCARERQIFSGDMDGWGQGTTVTVSS = binds
• DLX2684 (scFv, tested as cleared E. coli lysate; also called DLX2543_2530) scFv: EIVMTQSPSTLSASVGDRVTITCQASQSISSWLSWYQQKPGKAPKLLIYKASTLASGVPSRFSGSGSGTEFTLTISSLQPDDFATYYCQNAGGGVSIAFGQGTKLTVLGGGGGSGGGGSGGGGSGGGGSEVQLVESGGGNVQPGGSLRLSCTASGFSLSDAAMAWVRQAPGKGLEWVGIIYDSASTFYASWAKGRFTISRDNSKNTLYLQMNSLRAEDTATYYCARERNIFSGDMALWGQGTTVTVSS = binds
